Value source: the Human Domainome abundance scans (Beltran et al. 2025)

B1: Triacylglycerol hydrolase DDHD2, residues 389 to 447; numbered along this chain, O94830 (parent)
chain: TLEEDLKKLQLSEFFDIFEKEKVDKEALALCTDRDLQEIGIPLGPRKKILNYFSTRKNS

Variants of: B1
PROCEDURE_TEXT: abundance fitness (aPCA) (normalised: wild type 0, dead -1); higher = more abundant; growth selection in yeast, the domain comes from the species named
CONDITION: Homo sapiens
Consider the following partition of reported abundance fitness into named classes: LOW = under -0.3, MID = from -0.3 up to -0.05, HIGH = -0.05 and over

INPUT: In plain terms, what class is TLEEDLKKLQLSEFFDIFEKEKVDKEALALCSDRDLQEIGIPLGPRKKILNYFSTRKNS [T32S] ?
OUTPUT: MID

INPUT: TLEEDLKKLQLSEFFDIFEKEKVDKEALALCTDRDLQEIGIPLGPRKPILNYFSTRKNS [K48P] , same question.
OUTPUT: LOW

INPUT: TLEEDLKKLQLSEFFDIFEKEKVDKEALALCNDRDLQEIGIPLGPRKKILNYFSTRKNS [T32N] , same question.
OUTPUT: MID

INPUT: TLEEDLKKLQLSEFFDIFEKEKVDKEALALCTDRDLQEIGIPLGPYKKILNYFSTRKNS [R46Y] , same question.
OUTPUT: LOW

INPUT: TLEEDLKKLQLSEFFDIFEKEKVDKEALALCTDRDLQESGIPLGPRKKILNYFSTRKNS [I39S] , same question.
OUTPUT: LOW

INPUT: TLEEDLKKLQLSEFFDIFYKEKVDKEALALCTDRDLQEIGIPLGPRKKILNYFSTRKNS [E19Y] , same question.
OUTPUT: MID

INPUT: TLEEDLKKLQLSEFFDIFEKEDVDKEALALCTDRDLQEIGIPLGPRKKILNYFSTRKNS [K22D] , same question.
OUTPUT: HIGH

INPUT: TLEEDLKKLQLSAFFDIFEKEKVDKEALALCTDRDLQEIGIPLGPRKKILNYFSTRKNS [E13A] , same question.
OUTPUT: HIGH

INPUT: TLEEDLKKLQLSEFFDIFEKEKVDKEALALCTDRDLQEIGIPLGPRKKILNYFSTRFNS [K57F] , same question.
OUTPUT: MID

INPUT: TLEEDLKKLQLSEFFDIFEKEKVDKEALALCTDRMLQEIGIPLGPRKKILNYFSTRKNS [D35M] , same question.
OUTPUT: HIGH
